# reported IC50; entries follow
- ASSAY SYSTEM: HEK-293 cells expressing a Kif5b-RET fusion protein (Homo sapiens)
- Construct: KIF5B (N-terminal portion incl. coiled-coil); the other entry of the earlier key: KIF5B (P33176, Kinesin-1 heavy chain)
- Sequence (P07949 713-1063 limits assumed): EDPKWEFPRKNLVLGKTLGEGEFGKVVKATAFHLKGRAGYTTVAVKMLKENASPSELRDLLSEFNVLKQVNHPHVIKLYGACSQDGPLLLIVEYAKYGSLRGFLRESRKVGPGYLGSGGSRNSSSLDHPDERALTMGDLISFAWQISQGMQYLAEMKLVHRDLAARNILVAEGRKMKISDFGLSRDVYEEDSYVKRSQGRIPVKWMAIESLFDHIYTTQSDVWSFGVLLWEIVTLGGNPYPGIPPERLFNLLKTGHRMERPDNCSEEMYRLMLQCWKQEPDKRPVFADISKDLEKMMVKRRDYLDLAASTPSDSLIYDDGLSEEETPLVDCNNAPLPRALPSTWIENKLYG
- EXPERIMENT NOTES: RET Cell Assay (phospho-RET Tyr1062)
- PROTOCOL CONDITIONS: HEK-293 Kif5b-RET, 1 hour incubation, phospho-RET normalized to GAPDH; read-out: KIF5B-RET pTYR1062 Cell IC50
I'd appreciate it if you included the unit after the number.

Recorded IC50, per entry:
COMPOUND	RESULT
Nc1ncnc2c1c1c(n2C2CCC(O)C2)CCC(O)c2c-1noc2C1CC1 (stereo not drawn) [Example 129]	18 nM
CC(C)n1c2c(c3c(N)ncnc31)-c1cc3ccccc3n1C(=O)NC2 [Example 69]	103 nM
CC(C)n1c2c(c3c(N)ncnc31)-c1cc3ccc(C(=O)NC4CC4)cc3n1CCC2 [Example 87]	32 nM
CC(C)n1c2c(c3c(N)ncnc31)-c1ccc(Cl)cc1C(=O)NC2 [Example 45]	344 nM
CC(C)n1c2c(c3c(N)ncnc31)-c1noc(C3CC3)c1C(=O)N(CC1CC1)C2 [Example 5]	75 nM
CC(C)n1c2c(c3c(N)ncnc31)-c1cc3ccc(C(=O)Nc4ccn(CCC(F)(F)F)n4)cc3n1CCC2 [Example 101]	43 nM
COC(=O)c1ccc2cc3n(c2c1)C(=O)NCc1c-3c2c(N)ncnc2n1C(C)C [Example 70]	166 nM
CC(C)n1c2c(c3c(N)ncnc31)-c1noc(C3CC3)c1[C@@H](O)[C@H](C)C2 (single isomer, unassigned) [Example 64]	47 nM

Q: Given the entry CC(C)n1c2c(c3c(N)ncnc31)-c1cc3ccc(C#N)cc3n1C(=O)NC2 [Example 76] , report its measured IC50.
A: 143 nM

Q: Fill in the blank: the reported IC50 of CC(C)n1c2c(c3c(N)ncnc31)-c1noc(C3CC3)c1C(=O)N(Cc1ccccc1)C2 [Example 7] is ____.
A: 135 nM

Q: Consider the compound CC(C)n1c2c(c3c(N)ncnc31)-c1noc(C3CC3)c1[C@@H](O)[C@H](C)C2 (relative stereo) [Example 62] and give its measured IC50.
A: 52 nM

Q: Any idea what IC50 was measured for Nc1ncnc2c1c1c(n2C2CCCC2)CCC(O)c2c-1noc2C1CC1 (single isomer, unassigned) [Example 124] ?
A: 19 nM

* * *

- ASSAY SYSTEM: RET kinase V804M (Homo sapiens, UniProt P07949, V804M)
- EXPERIMENT NOTES: RET Enzyme Assay (CisBio HTRF KinEASE-TK), V804M
- Type: biochemical
- PROTOCOL CONDITIONS: V804M RET, 1 mM ATP, averaged IC50; read-out: RET V804M Enz FRET IC50
Form field: pIC50 (one value per entry).
The read-out pIC50 is expressed as -log10 of concentration in moles per litre.

>>> print(df.to_string())
                                   compound  quantity  readout_number
0  Nc1ncnc2c1c1c(n2C2CCNC2)CCC(O)c2c-1noc2C1CC1 (stereo not shown) [Example 133]     pIC50            5.21
1  COC(=O)[C@H]1C[C@H](n2c3c(c4c(N)ncnc42)-c2noc(C4CC4)c2C(=O)CC3)C1     pIC50            6.30
2  C[C@H](n1c2c(c3c(N)ncnc31)-c1noc(C3CC3)c1[C@H](O)CC2)C(F)(F)F (single isomer, unassigned)     pIC50            7.51

For the next question, use this compound.
Q: For the compound shown here, Nc1ncnc2c1c1c(n2C2CCNC2)CCC(O)c2c-1noc2C1CC1 (stereo not shown) [Example 132] , give the reported pIC50.
A: 5.71

* * *

- ASSAY SYSTEM: G810S mutant RET kinase (Homo sapiens, UniProt P07949, G810S);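 further: HTRF KinEASE-TK kinase assay with recombinant enzyme, 1 h at 22 °C, dual-wavelength ratiometric read-out, percent of control (DMSO-only = 100, pre-quenched reaction = 0)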
- EXPERIMENT NOTES: biochemical
QUANTITY: pIC50
To interpret pIC50, take it as minus log10 of a concentration measured in moles per litre.

Known results for compounds:
>>> print(df.to_string())
                                   compound  readout_number
0  Nc1ncnc2[nH]c3c(c12)-c1noc(C2CC2)c1C(=O)NC3 [Example 66, 2,2,2-trifluoroacetate]            5.64
1  CC(C)n1c2c(c3c(N)ncnc31)-c1ccc(C3CC3)cc1C(=O)NC2            6.52
2  CC(C)n1c2c(c3c(N)ncnc31)-c1cc3ccccc3n1C(=O)CC2            5.93
3  Nc1ncnc2[nH]c3c(c12)-c1noc(C2CC2)c1C(=O)CC3            5.57
4  CC(C)n1c2c(c3c(N)ncnc31)-c1noc(C3CC3)c1C(O)CC2 (racemic)            7.60
5  CC(C)n1c2c(c3c(N)ncnc31)-c1cc3ccc(Cl)cc3n1C(=O)NC2            6.20

Q: Given the entry Nc1ncnc2c1c1c(n2[C@@H]2C[C@@H](O)[C@@H](O)C2)CCC(O)c2c-1noc2C1CC1 (some centres unmarked) , report its measured pIC50.
A: 7.49

Q: For `CC(C)n1c2c(c3c(N)ncnc31)-c1cc3ccc(C(=O)NC4CC4)cc3n1C(=O)NC2` , what is its reported pIC50?
A: 5.58

* * *

- ASSAY SYSTEM: G810R mutant RET kinase (Homo sapiens, UniProt P07949, G810R);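 further: HTRF KinEASE-TK enzymatic assay with 1 nM recombinant RET G810R, 1 h at 22 °C, dual-wavelength ratiometric readout, 100% control without compound, 0% from pre-quenched reactions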
- EXPERIMENT NOTES: biochemical
# key: entry, value: IC50
Please give a number only; it is taken to be in nM.

Reference set, count: 8
>>> print(df.to_string())
                                   molecule                              assay_system  readout_number
0  Cc1cc2n(n1)C(=O)NCc1c-2c2c(N)ncnc2n1C(C)C [Example 105, 2,2,2-trifluoroacetate]  G810R mutant RET kinase (Homo sapiens, UniProt P07949, G810R)             742
1  CC(C)n1c2c(c3c(N)ncnc31)-c1cc3ccccc3n1C(=O)CC2  G810R mutant RET kinase (Homo sapiens, UniProt P07949, G810R)             485
2  CC(C)n1c2c(c3c(N)ncnc31)-c1noc(C3CC3)c1C(O)CC2 (racemic)  G810R mutant RET kinase (Homo sapiens, UniProt P07949, G810R)              27
3  CC1Cc2c(c3c(N)ncnc3n2C(C)C)-c2noc(C3CC3)c2C1O (stereo not shown)  G810R mutant RET kinase (Homo sapiens, UniProt P07949, G810R)              89
4  CC(C)n1c2c(c3c(N)ncnc31)-c1cc3ccccc3n1C(=O)NC2  G810R mutant RET kinase (Homo sapiens, UniProt P07949, G810R)              47
5  COC1CCc2c(c3c(N)ncnc3n2C(C)C)-c2noc(C3CC3)c21 (racemic)  G810R mutant RET kinase (Homo sapiens, UniProt P07949, G810R)             102
6  COC(=O)c1ccc(-n2c3c(c4c(N)ncnc42)-c2noc(C4CC4)c2C(O)CC3)cc1 (stereo not shown) [Example 113, 2,2,2-trifluoroacetate]  G810R mutant RET kinase (Homo sapiens, UniProt P07949, G810R)             106
7  CC(n1c2c(c3c(N)ncnc31)-c1noc(C3CC3)c1C(O)CC2)C(F)(F)F (stereo not shown)  G810R mutant RET kinase (Homo sapiens, UniProt P07949, G810R)              97

Q: Could you tell me which IC50 is on file for `CC(C)n1c2c(c3c(N)ncnc31)-c1noc(C3CC3)c1C(=O)N(CCN1CCS(=O)(=O)CC1)C2` ?
A: 224

Q: Fill in: IC50 of Nc1ncnc2c1c1c(n2-c2ccccc2)CNC(=O)c2c-1noc2C1CC1 [Example 110, 2,2,2-trifluoroacetate] is ___
A: 214

Q: Item `CC(C)n1c2c(c3c(N)ncnc31)-c1noc(C3CC3)c1CN(C(=O)Cc1ccccc1)C2` has what recorded IC50?
A: 3070
